Values were extracted from patent US20030108957A1.

molecular target: E. coli DnaK aa583-615 (hinge region between C-terminal helices D and E) (E. coli)
measured.endpoint: pKd
Just the number, please; pKd means minus log10 of the concentration in mol/L.

Note to self: pKd recorded for KVDKGSYLPRPTPPRPIYNRN (modifications not checked) [fluorescein-K-pyrrhocoricin] was 4.29
